- Tested on: HOP-62
- test: NCI tumour cell line growth inhibition, 48 h
Calls of active or inactive are those of the source. Rule as the data show it: active = GI50 up to about 1.1 µM and inactive = higher.
I'd be grateful if you could share measured GI50 for these entries.

Below, 8 compounds whose answers are already recorded.
compound	GI50
NC(=O)/C=C/c1c[nH]c2nccnc12	2.94 µM (inactive)
COc1ccc2c(c1)CCc1c-2[nH]c2ccc(OC)cc12	> 100 µM (inactive)
N=S(c1ccccc1[N+](=O)[O-])c1ccccc1[N+](=O)[O-]	4.65 µM (inactive)
c1ccc2c(c1)Nc1nc3nonc3nc1N2	> 100 µM (inactive)
Cc1c2c(c(C)c3c1[nH]c1ccccc13)CN(C)CC2	23.2 µM (inactive)
COC(=O)[C@@H](OC(C)=O)[C@@H](OC(C)=O)c1nnc2ccc(Cl)nn12	> 100 µM (inactive)
N=C1NC(c2ccc(Cl)cc2)=CC(c2cccc(Cl)c2)S1 (stereo not drawn)	38.7 µM (inactive)
COC(=O)c1ccc(NCc2cc(O)ccc2O)cc1O	10.9 µM (inactive)

Quick request: GI50 for each listed item, please.
1. O=C1c2ccccc2-c2c3c(cc4ccnc1c24)OCO3
2. Cc1cn(CC2=NCC(C)(C)N2)c(=O)[nH]c1=O
3. C/C(=C1/N=C(c2cc([N+](=O)[O-])ccc2Cl)N(c2cccc(C)c2)C1=O)c1cc2ccccc2oc1=O
4. Cc1cn(Cc2ccccc2CCO)c(=S)[nH]c1=O

3.89 µM (inactive)
> 100 µM (inactive)
> 100 µM (inactive)
> 100 µM (inactive)

* * *

- Tested on: Malme-3M
- test: NCI tumour cell line growth inhibition, 48 h
Active and inactive are the calls of the source. Rule as the data show it: active = GI50 up to about 1.1 µM and inactive = higher.
I'd be grateful if you could share measured GI50 for these entries.

compound	target-or-system	GI50
O=C1/C(=C/c2cccc(Oc3ccccc3)c2)N=C(c2ccccc2)N1c1nc2ccc(Sc3ccccc3)cc2[nH]1	Malme-3M	67.8 µM (inactive)
CC1(C)C2CC3C4CC5(Nc6ccccc6C5N41)[C@]3(C)CC2=O (some centres undefined)	Malme-3M	> 50 µM (inactive)
CCOC(=O)c1cc([N+](=O)[O-])c(Sc2ncnc3nc[nH]c23)c([N+](=O)[O-])c1	Malme-3M	3.15 µM (inactive)

// sample `CC(C)(C)CC(C)(C)c1cc(O)c(O)c(CN2CCCCC2)c1` , its GI50 was 12.8 µM (inactive)

* * *

- Tested on: NCI-H460
- test: NCI tumour cell line growth inhibition, 48 h
Activity calls are given as the source filed them. Cut-off read from the data, not from the text of the source: active = GI50 up to about 1.1 µM and inactive = higher.
Return exactly one item of label 1 (active), label 0 (inactive)

# example entries with known answers
compound	label
CC1=NN(C(=O)c2ccccc2O)C(=O)/C1=C/c1ccc([N+](=O)[O-])cc1	label 1
Cc1cn(CC2=NCC(C)(C)N2)c(=O)[nH]c1=O	label 0
COc1ccc2c(c1)CCc1c-2[nH]c2ccc(OC)cc12	label 0
c1ccc2c(c1)Nc1nc3nonc3nc1N2	label 0
Cc1cc2c(C)nn(Cc3ccccc3)c2c(C(N)=O)c1C	label 0
Oc1nc2nnc(COc3ccc(Cl)cc3Cl)n2nc1Cc1ccccc1	label 0

Any idea what this test logged for `COC(=O)c1cccc2c1Oc1ccccc1S2` ? label 0

Any idea what this test logged for COC(CN(C(=O)c1ccccc1)C1CCC2(SCCS2)c2[nH]c3ccccc3c21)OC (stereo unspecified) ? label 0

Any idea what this test logged for `COC(=O)/C=C/c1ccc2c(c1)CCC2` ? label 0

Any idea what this test logged for `COC(=O)c1ccc(NCc2cc(O)ccc2O)cc1O` ? label 0

Any idea what this test logged for `CS/C1=C(\c2ccc(C)cc2)N(c2ccccc2)C(=O)C(=O)N(c2ccccc2)/C(c2ccc(C)cc2)=C(/SC)SS1` ? label 0
